Measured self-cleavage by item
B1: Twister Ribozyme (parent)
chain: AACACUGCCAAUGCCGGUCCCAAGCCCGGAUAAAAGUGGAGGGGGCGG

# Variants of: B1
# Test Summary: self-cleavage, relative activity (ratio to wild type); higher = more cleavage; co-transcriptional
Measured Quantity: self-cleavage

1. U12C G38U: 0.781
2. C27A: 0.672
3. C25U G39C: 0.117
4. A22G U37C: 0.129
5. C3U C26U: 0.138
6. G7C U18C: 0.0305
7. C5G G44A: 0.642
8. C5G C21U: 0.104
9. A34U G39C: 0.138
10. C15U C25U: 0.914
11. C27A U37A: 0.138
12. A11C G45A: 0.938
13. G29U G39U: 0.223
14. C19U G39A: 0.28
15. U12A U18A: 0.643
16. C15A A22G: 0.141
17. C21U A34U: 0.11
18. A10C A33U: 1.08
19. G17A C20A: 0.0884
20. A32G G38A: 0.846
21. A10G G29A: 1.09
22. U18C A33G: 0.503

Each recorded value in this set is attributed to the RNAGym collection of RNA variant scans (doi:10.7554/elife.80360).
